Tested on: Fibroblast
Assay: Incucyte cell viability with human fibroblast; note: unitless GR value; below 1 slowed growth and below 0 cell loss
Assay type: toxicity, cell-based
Conditions: 24 h, 10 µM, compound concentration 10 uM, replicate number 2
Param label: returns 1 (yes) when Growth Rate < 0.7, returns 0 (no) otherwise, including exact equality.

Confirm or reject: Growth Rate of Cc1cc(Cn2c(N3CC4(CNC4)C3)nc3c(N4CCN(C)CC4)cc(Cl)cc32)cc(C)c1F lies strictly below 0.7 1 (yes)

Lab note: Growth Rate threshold 0.7. Does this compound come in strictly under it? CC(C)CNc1nc(N2CCN(CC3CCCOC3)CC2)ncc1C(=O)NCc1ccccc1 (centres undefined) 1 (yes)

I'd appreciate it if you could check whether CC(C)c1cnc(NC(=O)Cc2ccccc2)s1 has Growth Rate smaller than 0.7. 0 (no)

Below 0.7 on Growth Rate? Entry Cc1cc2nc(N3CCC(C(=O)NC4CCCC4)CC3)n(C(C)C)c2cc1C 0 (no)

Dear reviewer, please state whether CNC(=O)c1ccc2c(c1)NC(=O)/C2=C(\Nc1ccc(CN2CCCCC2)cc1)c1ccccc1.Cl.O has Growth Rate strictly beneath 0.7. 0 (no)

In plain terms, does C[C@@H](Cn1c(=O)[nH]/c(=N\c2ccc(Oc3ccccn3)cc2)n(Cc2ccc(Cl)cc2)c1=O)C(=O)O come in under 0.7 for Growth Rate? 0 (no)

Please state whether Growth Rate is below 0.7 for O=C(Nc1c[nH]nc1-c1nc2cc(CN3CCOCC3)ccc2[nH]1)NC1CC1 1 (yes)

---

Provide the recorded Growth Rate for the entries that follow.
Test system: HEK-293T
Assay: Incucyte cell viability with HEK293T; note: unitless GR value; below 1 slowed growth and below 0 cell loss
Type: toxicity, cell-based
Settings: human, 6 h, 10 µM, compound concentration 10 uM, replicate number 1
Please reply with the number alone, leaving off any unit.

Please give the measured Growth Rate for this compound: Nc1ncnc2c1c(COc1cccc(Cl)c1)nn2C1CCOCC1 0.75

Could you tell me which Growth Rate is on file for C=CC(=O)N1CCC[C@@H](n2nc(-c3ccc(Oc4ccccc4)cc3)c3c(N)ncnc32)C1 ? -0.5

Entry under review: Fc1ccc(-c2nc(-c3ccc4ccccc4c3F)[nH]c2-c2ccncc2)cc1 . Reported Growth Rate? 0.81

Fill blank: measured Growth Rate of the compound COc1ncc(-c2cc(-c3ncc(CN4C[C@@H](C)O[C@@H](C)C4)o3)c3cn[nH]c3c2)cc1NS(C)(=O)=O is ____. -0.44

Can you share its Growth Rate? I mean this compound: COc1cc(N2CCC(N3CCN(C)CC3)CC2)ccc1Nc1ncc(Cl)c(Nc2ccccc2S(=O)(=O)C(C)C)n1 -0.99

Any idea what its Growth Rate is? The compound is CN(C)C(=O)Cn1cc(-c2nc(C3(c4ccc(-c5cnc(N)nc5)cc4)CC3)no2)cn1 0.25

Please look up its Growth Rate: CC1(C)Oc2ncnc(N)c2N=C1c1ccc([C@H]2CC[C@H](CC(=O)O)CC2)cc1 0.77

Give the measured Growth Rate of CC1(C)C[C@@H]1C(=O)N/C(=C\CCCCSC[C@H](N)C(=O)O)C(=O)O . 0.74

---

Could you please report measured Growth Rate for the items listed next?
Test system: Fibroblast
Test: Incucyte cell viability with human fibroblast; note: unitless GR value; below 1 slowed growth and below 0 cell loss
Format: toxicity, cell-based
Conditions: 12 h, 10 µM, compound concentration 10 uM, replicate number 2
Please give the numeric answer without any surrounding text.

GET /values?readout=Growth Rate&item= O=C(O)CNC(=O)c1c(O)c2ccccc2n(Cc2ccccc2)c1=O 0.68

If you can, please state the reported Growth Rate value of CC/C(=C(\c1ccccc1)c1ccc(OCCN(C)C)cc1)c1ccccc1.O=C(O)CC(O)(CC(=O)O)C(=O)O [TAMOXIFEN CITRATE] . -0.01

Recorded Growth Rate of Cc1cc(C2CCCNC2)ccc1Nc1ncc(Br)c(NCc2cccc3c2C(C)(C)C(=O)N3)n1 (stereo not given) , please. 0.81

Record request: Growth Rate value, item C=C[C@H]1C[N@@]2CC[C@H]1C[C@@H]2[C@@H](O)c1ccnc2ccc(OC)cc12 [QUINIDINE] 0.9

Which value of Growth Rate has been reported for CC(C)n1cnc2c(Nc3cccc(Cl)c3)nc(N[C@H]3CCCC[C@@H]3N)nc21 in the records? -0.16

// lookup Growth Rate for Cc1onc(O)c1CC(N)C(=O)O [(R,S)-AMPA] 0.59

Fill in: Growth Rate of CC(=O)c1c(C)c2cnc(Nc3ccc(N4CCN(CCOCCOCCOCCNC(=O)COc5cccc6c5C(=O)N(C5CCC(=O)NC5=O)C6=O)CC4)cn3)nc2n(C2CCCC2)c1=O (stereo not given) is ___ 0.92

# lookup: Growth Rate of Cc1cc(NC(=O)c2cccc(NC(=O)/C=C/CN(C)C)c2)ccc1Nc1nccc(-c2cccnc2)n1 -0.15

Which measured Growth Rate value corresponds to O=c1cccc2n1C[C@@H]1CNC[C@H]2C1 [CYTISINICLINE] ? 0.99

Requested read-out: Growth Rate. Entry: COCCNC1CCC(Nc2cc(-c3csc(NCC4(C#N)CCOCC4)n3)c(Cl)cn2)CC1 (stereo not given) 0.24

Item c1ccc2c(c1)SCc1c-2[nH]c2ccccc12 has what recorded Growth Rate? -0.98

Consider the compound COc1cc(N(C)c2ccnc3ccc(C(F)(F)F)cc23)cc(OC)c1OC and give its measured Growth Rate. 0.94

Consider the compound O=C(Nc1ccc(-n2nc(C(F)(F)F)cc2C(F)(F)F)cc1)c1ccncc1F and give its measured Growth Rate. 0.14

Look up Growth Rate: Cc1nnsc1C(=O)Nc1ccc(-n2nc(C(F)(F)F)cc2C(F)(F)F)cc1 0.73

Which Growth Rate is listed for CN1C2CCCC1CC(Nc1ccccc1Br)C2 (stereo not given) ? 0.88

Request the reported Growth Rate associated with C[C@H](CCC(=O)O)[C@H]1CC[C@H]2[C@@H]3CC[C@@H]4C[C@H](O)CC[C@]4(C)[C@H]3C[C@H](O)[C@]12C [DEOXYCHOLIC ACID] 0.78

Which Growth Rate value is on record for COc1ccc(Cl)cc1[C@]1(F)C(=O)Nc2cc(C(F)(F)F)ccc21 [FLINDOKALNER] ? 0.2

What does the record list as Growth Rate for CC(=O)N(CCN(C)C)c1ccc(N/C(=C2\C(=O)Nc3cc(Cl)ccc32)c2ccccc2)cn1 ? -0.8

May I ask what Growth Rate has been recorded for CCOC(=O)c1ccc(CN(Cc2ccc(-c3cccc(S(C)(=O)=O)c3)cc2)S(=O)(=O)c2c(C)cc(C)cc2C)o1 ? 0.87

Can you share its Growth Rate? I mean this compound: NC(=O)OC[C@H](NC(=O)Cn1nc(-c2ccc(Cl)cc2)n(C[C@H](O)C(F)(F)F)c1=O)c1cccc(C(F)(F)F)c1 0.75

Growth Rate lookup needed for CCn1cnc2c(-c3ccc(F)c(-c4ccc(S(=O)(=O)CC)cc4OC)c3)cnnc21 [DARIGABAT] , thanks. -0.93

Item Cc1nc(Nc2cnn(C3CCNCC3)c2)nc2c1N(C)C(=O)c1cc3ccccc3cc1N2C has what recorded Growth Rate? 0.26

Which value of Growth Rate has been reported for CCOC(=O)N1CCC(CN(Cc2ccc(Cl)cc2)Cc2ccc([N+](=O)[O-])s2)C1 (stereo not given) [SR9009] in the records? 0.2

GET /values?readout=Growth Rate&item= CCO[C@H](COc1ccc(C(F)(F)F)cc1)CSc1ccc(OCC(=O)[O-])c(C)c1.[Na+] 0.87

Need Growth Rate, item Cc1ccc(NS(=O)(=O)c2ccc3c(c2)C2C=CCC2C(c2ccc(C(=O)O)cc2)N3)cc1C (stereo not given) 0.36

Field request: Growth Rate | item: O=C(Nc1snnc1C(=O)Nc1ccc(N2CCCC2)cc1)c1cncc(C(F)(F)F)c1 0.11

Sample CCCNc1ccc2ncc(-c3ccncc3)n2n1 — what was its Growth Rate? 0.09

May I ask what Growth Rate has been recorded for N#Cc1ccc(C#CC[C@@H](C#N)NC(=O)[C@@H]2CCCCN2)cc1F ? 1

Growth Rate lookup needed for CC(=O)N1CCC(c2ccc(C(=O)NC(=N)N)cc2C(F)(F)F)CC1 [BI 9627] , thanks. 0.57

Quick one: Growth Rate of CCn1c(CNC(=O)c2nc(Cl)cnc2N)[n+](CC)c2ccc(C(=O)N(C)CCN(C)C)cc21.[Cl-] ? 0.59

Fill in the blank: the reported Growth Rate of CN1CC[C@@]23CCCC[C@@H]2[C@@H]1Cc1ccc(O)cc13.O=C(O)C(O)C(O)C(=O)O is ____. -0.3

// query Growth Rate value for entry CN(C)CC#Cc1ccc2[nH]c3c(c2c1)-c1nc(N)ncc1CCC3 0.69

Can you look up the measured Growth Rate of CC(=O)Oc1ccc2c(c1)[C@@]1(C)CCC[C@](C)(C(=O)OC(=O)[C@@]3(C)CCC[C@]4(C)c5cc(OC(C)=O)ccc5CC[C@@H]34)[C@@H]1CC2 [ACETYL PODOCARPIC ACID ANHYDRIDE] for me? 0.33

What measured Growth Rate goes with CC(C)(O)[C@H]1CC[C@H](Nc2ccc3ncc(-c4cccc(C(F)(F)F)c4)n3n2)CC1 [NUVISERTIB] ? -0.72

Could you tell me which Growth Rate is on file for Cc1noc(C)c1-c1cnc2c(-c3ccc(C(=O)O)cc3)cn([C@@H](C)c3ccccn3)c2c1 [PLX-51107] ? 0.35

Data credit: ChEMBL document CHEMBL5303304
